# measured on: TAFIa (activated human TAFI) (Homo sapiens, UniProt Q96IY4)
# Sequence (Q96IY4 115-423): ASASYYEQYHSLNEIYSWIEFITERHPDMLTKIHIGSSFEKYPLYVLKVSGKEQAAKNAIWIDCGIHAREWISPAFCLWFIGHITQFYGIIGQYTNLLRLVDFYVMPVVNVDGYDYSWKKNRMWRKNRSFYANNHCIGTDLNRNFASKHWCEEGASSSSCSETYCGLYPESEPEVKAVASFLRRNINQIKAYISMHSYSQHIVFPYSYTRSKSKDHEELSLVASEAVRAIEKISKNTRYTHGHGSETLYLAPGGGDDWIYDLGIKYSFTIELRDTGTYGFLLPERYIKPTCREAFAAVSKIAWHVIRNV
# experiment notes: Assay for TAFIa inhibition (Ki determination)
# Assay type: biochemical
# Experimental: To determine the degree of TAFIa inhibition, compounds were incubated with activated TAFI, and the amount of inhibition expressed in terms of Ki. […] A number of different dilutions of the test compound in water were made up. […] Substrate turn over was measured by reading the absorbance of the reaction mixture at 330 nm every 15 seconds for 30 minutes. Reaction was performed at 24° C. and samples were mixed for 3 seconds prior to each absorbance reading. […]
measure: pKi
Please note pKi is a logarithmic value: minus log10 of concentration in mol/L. Answer with that number alone.

The recorded pKi for CCCn1cnc(C[C@H](CCCN)C(=O)O)c1 is 7.89

Reference for the values: patent US6949577B2
